These data points were gathered from patent US20170184612A1.

- Test system: peripheral blood mononuclear cells (PBMC), T cells
- run_description: ELISpot assay, gamma-interferon release (SFC) after stimulation with a-synuclein epitope pools
- Format: cell-based, human
- experimental_parameters: Patients Summary; PD patients; of donors tested (peptide)
test_readout: IFNg Peptide + (donors positive to the peptide)

Please review the following examples before continuing.
[[record]]
substance = "3521.0038 (EMPSEEGYQD; listed as Homo sapiens)"
assay_value = 0

[[record]]
substance = "3521.0023 (YEMPSEEGY; listed as Homo sapiens)"
assay_value = 0

[[record]]
substance = "3521.0025 (EEGAPQEGI; listed as Homo sapiens)"
assay_value = 1

[[record]]
substance = "3521.0063 (GVVHGVTTV; listed as Homo sapiens)"
assay_value = 1

[[record]]
substance = "3521.001 (VFMKGLSKA; listed as Homo sapiens)"
assay_value = 1


Problem: Can you share its IFNg Peptide + (donors positive to the peptide)? I mean this substance: 3521.0026 (MPSEEGYQD; listed as Homo sapiens)
Solution: 0

Problem: Same question, 3521.0059 (AEAAGKTKEG; listed as Homo sapiens) this time
Solution: 0

Problem: Same question, 3521.0075 (KQGVAEAPGKTKEGV; listed as Homo sapiens) this time
Solution: 3

Problem: Same question, 3521.0017 (FMKGLSKAK; listed as Homo sapiens) this time
Solution: 0

----------
- Tested on: peripheral blood mononuclear cells (PBMC), T cells
- run_description: ELISpot assay, IL-5 release (SFC) after stimulation with a-synuclein epitope pools
- Format: cell-based, human
- experimental_parameters: Patients Summary; PD patients; single peptide
- Protocol: Blood from age matched controls and PD patients were obtained and mononuclear cells were isolated by gradient centrifugation. Release of the cytokines gamma-interferon, which measures activation of CD4+ and/or CD8+ T cells, and the interleukin, IL-5, which measures activation of CD4+ T cells was measured by ELISpot assay. […] After 22 hours of stimulation at 37 C, the cells were removed and release of cytokines was measured by colorimetric detection of spot-forming cells (SFC). […]
IL-g Response Frequency vs 20%: at or above is T, below is F.

Worked set:
[[record]]
substance = "3521.0076 (PGKTKEGVLYVGSKT; listed as Homo sapiens)"
group = "F"

[[record]]
substance = "3521.0035 (SIAAATGFVK; listed as Homo sapiens)"
group = "T"

[[record]]
substance = "3521.0052 (KTKQGVAEAA; listed as Homo sapiens)"
group = "F"

[[record]]
substance = "3521.0029 (NVGGAVVTGV; listed as Homo sapiens)"
group = "F"

[[record]]
substance = "3521.0078 (YVGSKTKKGVVHGVA; listed as Homo sapiens)"
group = "F"


Turning to the following substance.
Problem: Would you say 3521.0077 (KTKEGVLYVGSKTKK; listed as Homo sapiens) shows IL-g Response Frequency at minimum 20%?
Solution: T

----------
Recorded IL-g Peptide + (donors positive to the peptide) by entry
- System: peripheral blood mononuclear cells (PBMC), T cells
- run_description: ELISpot assay, IL-5 release (SFC) after stimulation with a-synuclein epitope pools
- Type: cell-based, human
- experimental_parameters: Patients Summary; PD patients; of donors tested (peptide)
Field format: numeric only.

[[record]]
substance = "3521.0021 (PGKTKEGVL; listed as Homo sapiens)"
assay_value = 0

[[record]]
substance = "3521.0085 (EGVVHGVATVAEKTK; listed as Homo sapiens)"
assay_value = 0

[[record]]
substance = "3521.0013 (VTNVGGAVV; listed as Homo sapiens)"
assay_value = 0

[[record]]
substance = "3521.0071 (YVGSKTKEGVVHGVT; listed as Homo sapiens)"
assay_value = 1

[[record]]
substance = "3521.0044 (GVTAVAQKTV; listed as Homo sapiens)"
assay_value = 0


Problem: What is its IL-g Peptide + (donors positive to the peptide) for peripheral blood mononuclear cells (PBMC), T cells? Entry: 3521.0038 (EMPSEEGYQD; listed as Homo sapiens)
Solution: 0

Problem: Same question, 3521.004 (DNEAYEMPSE; listed as Homo sapiens) this time
Solution: 0

Problem: Same question, 3521.0066 (KAKEGVVAA; listed as Homo sapiens) this time
Solution: 0

Problem: Same question, 3521.0078 (YVGSKTKKGVVHGVA; listed as Homo sapiens) this time
Solution: 1

Problem: Same question, 3521.003 (GSIAAATGFV; listed as Homo sapiens) this time
Solution: 1

----------
- System: peripheral blood mononuclear cells (PBMC), T cells
- run_description: ELISpot assay, gamma-interferon release (SFC) after stimulation with a-synuclein epitope pools
- Format: cell-based, human
- experimental_parameters: IFNg, Pool Stimulated; number of donors with a positive response; Donors tested 1
Recorded Pool + by entry

Please review the following examples before continuing.
[[record]]
substance = "3521.0025 (EEGAPQEGI; listed as Homo sapiens)"
test_readout = "Pool +"
assay_value = 0

[[record]]
substance = "3521.0035 (SIAAATGFVK; listed as Homo sapiens)"
test_readout = "Pool +"
assay_value = 1


Problem: Can you share its Pool +? I mean this substance: 3521.0009 (LYVGSKTKK; listed as Homo sapiens)
Solution: 0

Problem: Same question, 3521.0042 (AGKTKEGVLY; listed as Homo sapiens) this time
Solution: 0

Problem: Same question, 3521.0044 (GVTAVAQKTV; listed as Homo sapiens) this time
Solution: 0

Problem: Same question, 3521.0054 (MPVDPDNEAY; listed as Homo sapiens) this time
Solution: 0

Problem: Same question, 3521.0057 (NEEGAPQEGI; listed as Homo sapiens) this time
Solution: 0

Problem: Same question, 3521.0085 (EGVVHGVATVAEKTK; listed as Homo sapiens) this time
Solution: 1

Problem: Same question, 3521.0075 (KQGVAEAPGKTKEGV; listed as Homo sapiens) this time
Solution: 1

Problem: Same question, 3521.0084 (YVGSKTKEGVVHGVA; listed as Homo sapiens) this time
Solution: 0

Problem: Same question, 3521.0079 (KGVVHGVATVAEKTK; listed as Homo sapiens) this time
Solution: 1

Problem: Same question, 3521.0006 (VLYVGSKTK; listed as Homo sapiens) this time
Solution: 0

Problem: Same question, 3521.0032 (GAVVTGVTAV; listed as Homo sapiens) this time
Solution: 1

Problem: Same question, 3521.0028 (MPSEEGYQDY; listed as Homo sapiens) this time
Solution: 0

Problem: Same question, 3521.0076 (PGKTKEGVLYVGSKT; listed as Homo sapiens) this time
Solution: 1

Problem: Same question, 3521.0015 (KTKEQVTNV; listed as Homo sapiens) this time
Solution: 0

----------
Recorded IL-g Total SFC by entry
- Test system: peripheral blood mononuclear cells (PBMC), T cells
- run_description: ELISpot assay, IL-5 release (SFC) after stimulation with a-synuclein epitope pools
- Assay type: cell-based, human
- experimental_parameters: single peptide; second 'Pool Stimulated' section (from r296), 12 donors tested
Your answer is read as SFC, so omit the unit and give the number.

Please review the following examples before continuing.
[[record]]
substance = "3521.0014 (KTVEGAGSI; listed as Homo sapiens)"
target_system = "peripheral blood mononuclear cells (PBMC), T cells"
test_readout = "IL-g Total SFC"
units_label = "SFC"
assay_value = 0

[[record]]
substance = "3521.0015 (KTKEQVTNV; listed as Homo sapiens)"
target_system = "peripheral blood mononuclear cells (PBMC), T cells"
test_readout = "IL-g Total SFC"
units_label = "SFC"
assay_value = 0


Problem: Can you share its IL-g Total SFC? I mean this substance: 3521.0043 (VFMKGLSKAK; listed as Homo sapiens)
Solution: 93.3

Problem: Same question, 3521.0028 (MPSEEGYQDY; listed as Homo sapiens) this time
Solution: 0

Problem: Same question, 3521.0076 (PGKTKEGVLYVGSKT; listed as Homo sapiens) this time
Solution: 120

Problem: Same question, 3521.0063 (GVVHGVTTV; listed as Homo sapiens) this time
Solution: 0

Problem: Same question, 3521.0001 (PVDPDNEAY; listed as Homo sapiens) this time
Solution: 0

Problem: Same question, 3521.0061 (AATGFVKKDQ; listed as Homo sapiens) this time
Solution: 195

Problem: Same question, 3521.002 (AGKTKEGVL; listed as Homo sapiens) this time
Solution: 0

Problem: Same question, 3521.0075 (KQGVAEAPGKTKEGV; listed as Homo sapiens) this time
Solution: 147

----------
- Test system: peripheral blood mononuclear cells (PBMC), T cells
- run_description: ELISpot assay, gamma-interferon release (SFC) after stimulation with a-synuclein epitope pools
- Assay type: cell-based, human
- experimental_parameters: peptides of pool 'Poshpho', 8 donors tested
test_readout: IFNg Total SFC (SFC)
Your answer is read as SFC, so omit the unit and give the number.

[[record]]
substance = "3521.0026 (MPSEEGYQD; listed as Homo sapiens)"
target_system = "peripheral blood mononuclear cells (PBMC), T cells"
units_label = "SFC"
assay_value = 27

[[record]]
substance = "3521.0002 (PSEEGYQDY; listed as Homo sapiens)"
target_system = "peripheral blood mononuclear cells (PBMC), T cells"
units_label = "SFC"
assay_value = 0


Problem: Can you share its IFNg Total SFC? I mean this substance: 3521.0056 (YEMPSEEGYQ; listed as Homo sapiens)
Solution: 100

Problem: Same question, 3521.0028 (MPSEEGYQDY; listed as Homo sapiens) this time
Solution: 40
